# subject-of-test: T1, O4-bN
# T1 chain: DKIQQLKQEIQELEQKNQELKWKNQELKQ
# test-method-notes: two-hybrid library CCNG1;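 further: natural log of median RNA to DNA barcode read ratio; higher means stronger binding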
assay-metric: interaction score

1: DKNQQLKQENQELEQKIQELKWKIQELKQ [O10-bN]
2: DKIQQLKQKNQELKQEIQELEWKNQELKQ [O16-bN]
[Q] Form field 'greater interaction score' accepts 1 or 2 ; which applies? Which one? Tell me its label.
[A] 2
(2: -0.0984, 1: -0.783)

P: DENQQLEQEIQELEQENQELEWKIQELKQ [O14-bN]
Q: DKIQQLKQEIQELEQKNQELKWKNQELKQ [O4-bN]
[Q] Returns: the label, P or Q , whose recorded interaction score is the lower number. Which one? Tell me its label.
[A] P

Each recorded value in this set is attributed to paper PMC10397247.
